Record form. Attribute: solubility at 24 h. Fill in for each entry.
# TEST_DETAILS: Water solubility test (equilibrium solubility in pure water, LC/MS)
# Assay type: physicochemical
# CONDITIONS_USED: ultrapure water, thermodynamic from solid, 37° C.

Challenge: Tell us which solubility at 24 h value is on record for O=c1c(O[C@@H]2O[C@H](CO)[C@@H](O[C@@H]3O[C@H](CO)[C@H](O)[C@H](O)[C@H]3O)[C@H](O)[C@H]2O)c(-c2cc(O)c(O)c(O)c2)oc2cc(O)cc(O)c12
Response given: > 100000 µg/mL

Challenge: Tell us which solubility at 24 h value is on record for CC(=O)OC[C@H]1O[C@@H](O[C@H]2[C@H](OC(C)=O)[C@@H](OC(C)=O)[C@H](Oc3c(-c4cc(O)c(O)c(O)c4)oc4cc(O)cc(O)c4c3=O)O[C@@H]2COC(C)=O)[C@H](OC(C)=O)[C@@H](OC(C)=O)[C@H]1OC(C)=O
Response given: 1.4 µg/mL

Challenge: Tell us which solubility at 24 h value is on record for CC(=O)OC[C@H]1O[C@@H](O[C@H]2[C@H](OC(C)=O)[C@@H](OC(C)=O)[C@H](Oc3c(-c4cc(OCc5ccccc5)c(OCc5ccccc5)c(OCc5ccccc5)c4)oc4cc(OCc5ccccc5)cc(O)c4c3=O)O[C@@H]2COC(C)=O)[C@H](OC(C)=O)[C@@H](OC(C)=O)[C@H]1OC(C)=O
Response given: < 0.1 µg/mL
